# test_summary: Primary qHTS for inhibitors of nuclear receptor binding SET domain protein 2 (NSD2) in an isogenic RCH-ACV NSD2 p.E1099K mutant (9B) (AID 1645876); further: nearly all actives have a fitted effect of over 70% in size
# conditions_used: RCH-ACV (leukaemia line) NSD2 E1099K (9B) viability, CellTiter-Glo, 72 h; series mostly up to 44.9 µM
Records with an inconclusive call do not appear. Calls of active or inactive are those of the source. The call rests on the fitted dose curve; in most records, active means well fitted inhibition curve with a large enough effect; inconclusive means small, poorly fitted or top-dose-only effect; inactive means flat fitted curve, though single readings scatter.
In this exercise, the only acceptable responses are y = active, n = inactive

Illustrative cases are given below, each with its answer.
| molecule | answer_label |
| --- | --- |
| O=C(Nc1ccc2c(c1)CCN(Cc1ncn[nH]1)C2)c1ccccc1-c1ccc(C(F)(F)F)cc1 | n |
| C/C(=N\O)c1ccc(OCC(=O)N2CCCCC2)cc1 | n |
| Oc1cc(O)cc(/C=C/c2ccc(O)c(O)c2)c1 | y |
| Nc1cc(-c2ccncc2)c[nH]c1=O | n |
| CC1(C)[C@@H](O[C@H]2O[C@H](C(=O)O)[C@@H](O)[C@H](O)[C@H]2O[C@@H]2O[C@H](C(=O)O)[C@@H](O)[C@H](O)[C@H]2O)CC[C@]2(C)[C@H]3C(=O)C=C4[C@@H]5C[C@@](C)(C(=O)O)CC[C@]5(C)CC[C@@]4(C)[C@]3(C)CC[C@@H]12 | n |
| COC(=O)C1=C(C)NC(C)=C(C(=O)OCC(C)=O)C1c1ccccc1[N+](=O)[O-] (configuration not stated) | y |
| CCCCCCCCCCCCCCCCCC(=O)O | n |
| O=c1[nH]c2ccccc2n1CCCN1CCN(C(c2ccccc2)c2ccccc2)CC1 | y |

From here, focus on the item given below.
Could you kindly confirm the outcome this assay logged for N#C/C(=C\c1ccc(O)c(O)c1)C(=O)NCCCc1ccccc1 ?
y

---

# test_summary: Cell Viability - LYMP2-013 (AID 970);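 further: cells exposed to compound for 24 h at 37 °C; nearly all actives have a fitted effect of over 55% in size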
# conditions_used: LYMP2-013 lymphoblastoid cells viability; series mostly up to 92.2 µM
Results filed as inconclusive are left out. Active and inactive are the calls of the source. The call rests on the fitted dose curve; in most records, active means well fitted cell-killing curve with a large enough effect; inconclusive means small, poorly fitted or top-dose-only effect; inactive means flat fitted curve, though single readings scatter.
In this exercise, the only acceptable responses are True (active), False (inactive)

Illustrative cases are given below, each with its answer.
| compound | answer_label |
| --- | --- |
| Nc1ccc(O)c([N+](=O)[O-])c1 | False |
| C#C[C@]1(O)CC[C@H]2[C@@H]3CCc4cc(O)ccc4[C@H]3CC[C@@]21C | False |
| COc1cc(/C=C/C(=O)CC(=O)/C=C/c2ccc(O)c(OC)c2)ccc1O | True |
| CN1CCC[C@H]1c1cccnc1 | False |
| CN(C)CCC(c1ccc(Cl)cc1)c1ccccn1 (centres undefined) | False |
| COc1cc(CNC(=O)CCCC/C=C/C(C)C)ccc1O | False |
| N=C1N=C(N)c2cc3ccccc3cc21 | True |
| CC1(C)S[C@@H]2[C@H](NC(=O)[C@H](N)c3ccccc3)C(=O)N2[C@H]1C(=O)O | False |

Could you kindly confirm the outcome this assay logged for CCCCCCCCCCCCCCCCCC(=O)O ?
False

Could you kindly confirm the outcome this assay logged for Nc1ccc(O)c(C(=O)O)c1 ?
False

Could you kindly confirm the outcome this assay logged for O=C(O)c1cc(O)c(O)c(O)c1 ?
False

Could you kindly confirm the outcome this assay logged for NCCO ?
False

Could you kindly confirm the outcome this assay logged for O=c1cc(-c2ccccc2)oc2ccccc12 ?
False

Could you kindly confirm the outcome this assay logged for c1ccc2sc(SSc3nc4ccccc4s3)nc2c1 ?
False
